Measured values drawn from patent US20230339991A1 for this set.

# ASSAY OVERVIEW: Blood-brain barrier experiment, brain and plasma concentrations after IV dosing
# Format: in vivo, CD-1 mice
# CONDITION: CD-1, mouse, brain/plasma, iv, 1 mg/kg, IV 1 mg/kg; 0.25 h; single animals; read-out: Ratio (Brain/Plasma)
Consider the following molecules and their measured Kp at 0.25 h readings.
No unit in the answer, please; the number alone is enough.

| MOLECULE | Kp at 0.25 h |
| --- | --- |
| O=[N+]([O-])c1ccc([C@H](OP(=O)(N2CC2)N2CC2)C(F)(F)F)c2ccccc12 [Compound B] | 1.47 |

// switching to the query molecule
Challenge: Query (molecule): O=[N+]([O-])c1ccc([C@@H](OP(=O)(N2CC2)N2CC2)C(F)(F)F)c2ccccc12 (single isomer, unassigned) [Compound C] ; field requested: Kp at 0.25 h
Response given: 0.82

###

# ASSAY OVERVIEW: Blood-brain barrier experiment, brain and plasma concentrations after IV dosing
# Format: in vivo, CD-1 mice
# CONDITION: CD-1, mouse; brain tissue; IV 1 mg/kg; read-out: T½ (converted)
Recorded half-life values for a group of molecules are listed next.
A number alone suffices; assume min.

| MOLECULE | OBSERVED MEASUREMENT |
| --- | --- |
| O=[N+]([O-])c1ccc([C@H](OP(=O)(N2CC2)N2CC2)C(F)(F)F)c2ccccc12 | 19.8 |

Please look at the following molecule next.
Challenge: Could you tell me which half-life is on file for O=[N+]([O-])c1ccc([C@@H](OP(=O)(N2CC2)N2CC2)C(F)(F)F)c2ccccc12 (single isomer, unassigned) ?
Response given: 21

###

# ASSAY OVERVIEW: Blood-brain barrier experiment, brain and plasma concentrations after IV dosing
# Type: in vivo, CD-1 mice
# CONDITION: CD-1, mouse, brain, iv, 1 mg/kg, IV 1 mg/kg; 0.25 h; single animals; read-out: Brain concentration
Collected concentration at 0.25 h values appear next to each entry.
Write the answer as a number in ng/g, unit excluded.

| COMPOUND | UNIT TEXT | concentration at 0.25 h |
| --- | --- | --- |
| O=[N+]([O-])c1ccc([C@@H](OP(=O)(N2CC2)N2CC2)C(F)(F)F)c2ccccc12 (single isomer, unassigned) | ng/g | 146 |

Challenge: Which concentration at 0.25 h is listed for `O=[N+]([O-])c1ccc([C@H](OP(=O)(N2CC2)N2CC2)C(F)(F)F)c2ccccc12` ?
Response given: 499

###

Recorded recovery at 2 h, one value per entry.
# EXPERIMENTAL TARGET: P-gp (Homo sapiens, UniProt P08183)
# Sequence (P08183 whole entry): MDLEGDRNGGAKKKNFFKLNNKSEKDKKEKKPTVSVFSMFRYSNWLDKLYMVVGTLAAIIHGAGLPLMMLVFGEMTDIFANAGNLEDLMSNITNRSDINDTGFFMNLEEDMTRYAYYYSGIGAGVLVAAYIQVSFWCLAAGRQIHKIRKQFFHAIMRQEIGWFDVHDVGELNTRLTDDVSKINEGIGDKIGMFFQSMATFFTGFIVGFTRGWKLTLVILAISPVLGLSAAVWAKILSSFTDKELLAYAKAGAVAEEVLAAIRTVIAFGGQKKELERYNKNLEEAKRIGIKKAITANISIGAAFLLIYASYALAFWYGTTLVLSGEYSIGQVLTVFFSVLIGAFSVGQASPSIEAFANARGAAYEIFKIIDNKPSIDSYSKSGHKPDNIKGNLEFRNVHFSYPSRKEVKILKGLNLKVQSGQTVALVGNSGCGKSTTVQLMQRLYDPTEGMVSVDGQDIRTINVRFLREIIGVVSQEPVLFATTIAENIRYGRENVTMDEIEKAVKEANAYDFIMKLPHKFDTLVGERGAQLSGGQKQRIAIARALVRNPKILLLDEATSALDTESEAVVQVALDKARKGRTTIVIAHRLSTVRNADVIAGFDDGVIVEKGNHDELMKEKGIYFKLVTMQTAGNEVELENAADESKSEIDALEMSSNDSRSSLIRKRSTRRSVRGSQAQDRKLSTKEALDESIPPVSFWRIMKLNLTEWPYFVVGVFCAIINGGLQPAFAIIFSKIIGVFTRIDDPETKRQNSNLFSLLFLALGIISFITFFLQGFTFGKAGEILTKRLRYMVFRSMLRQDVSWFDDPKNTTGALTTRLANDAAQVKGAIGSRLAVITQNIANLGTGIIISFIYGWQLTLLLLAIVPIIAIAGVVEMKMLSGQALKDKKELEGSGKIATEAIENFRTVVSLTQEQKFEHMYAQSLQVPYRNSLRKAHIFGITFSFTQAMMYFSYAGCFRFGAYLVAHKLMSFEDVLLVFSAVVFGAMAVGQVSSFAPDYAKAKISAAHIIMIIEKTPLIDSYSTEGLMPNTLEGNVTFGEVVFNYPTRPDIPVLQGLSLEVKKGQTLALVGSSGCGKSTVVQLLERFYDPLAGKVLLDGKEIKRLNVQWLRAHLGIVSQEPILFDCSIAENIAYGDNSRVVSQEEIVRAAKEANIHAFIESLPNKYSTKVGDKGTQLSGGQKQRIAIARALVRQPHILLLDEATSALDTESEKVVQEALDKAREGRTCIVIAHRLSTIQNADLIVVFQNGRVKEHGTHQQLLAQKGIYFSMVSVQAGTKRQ
# ASSAY OVERVIEW: P-gp substrate evaluation, MDCKII-MDR1 penetration test
# CONDITION: dog, MDCK-MDR1, with verapamil 100 μM (in donor and acceptor buffer), Recovery (%) BL-AP, verapamil 100 μM

Challenge: recovery at 2 h for `Cc1ccc(NC(=O)c2ccc(CN3CCN(C)CC3)cc2)cc1Nc1nccc(-c2cccnc2)n1` ?
Response given: 87.6%

Challenge: Need recovery at 2 h of `COc1cc2nc(N3CCN(C(=O)c4ccco4)CC3)nc(N)c2cc1OC` , thanks.
Response given: 88.5%

###

# ASSAY OVERVIEW: Blood-brain barrier experiment, brain and plasma concentrations after IV dosing
# Assay type: in vivo, CD-1 mice
# CONDITION: CD-1, mouse, brain/plasma, iv, 1 mg/kg, IV 1 mg/kg; 1 h; single animals; read-out: Ratio (Brain/Plasma)
REPORTED METRIC: Kp at 1 h
When you answer, write just the number.

| COMPOUND | Kp at 1 h |
| --- | --- |
| O=[N+]([O-])c1ccc([C@@H](OP(=O)(N2CC2)N2CC2)C(F)(F)F)c2ccccc12 (single isomer, unassigned) | 0.52 |

Challenge: Record request: Kp at 1 h value, item `O=[N+]([O-])c1ccc([C@H](OP(=O)(N2CC2)N2CC2)C(F)(F)F)c2ccccc12`
Response given: 1.26

###

# System: QGP-1
# ASSAY OVERVIEW: Cytotoxicity, pancreatic cancer PA cells QGP-1
# Type: cell-based
# CONDITION: Homo sapiens
REPORTED METRIC: pIC50
Answer as the number alone; pIC50 is minus log10 of concentration in mol/L.

Challenge: Write down the reported pIC50 of O=[N+]([O-])c1ccc(C(OP(=O)(N2CC2)N2CC2)C(F)(F)F)c2ccccc12 (racemic) , test system: QGP-1.
Response given: 5.20

###

# Test system: H460 cancer cells
# ASSAY OVERVIEW: Hypoxia-dependent proliferation inhibition, H460, CTG
# Format: cell-based, human
# CONDITION: Homo sapiens, NCI-H460, hypoxic (<0.01% O2), 3 h exposure, read-out: N2 IC50
REPORTED METRIC: IC50

| COMPOUND | IC50 |
| --- | --- |
| Cn1c(COP(=O)(NCCBr)NCCBr)cnc1[N+](=O)[O-] [TH-302, Evofosfamide] | 20 nM |
| O=[N+]([O-])c1ccc(C(OP(=O)(N2CC2)N2CC2)C(F)(F)F)c2ccccc12 (racemic) [Compound A] | 40 nM |

Challenge: Item CC(OP(=O)(N1CC1)N1CC1)c1ccc([N+](=O)[O-])c2ccccc12 (stereo not drawn) [Compound D] with H460 cancer cells - IC50?
Response given: 40 nM

###

Examples of molecules with documented Kp at 2 h follow.
# ASSAY OVERVIEW: Blood-brain barrier experiment, brain and plasma concentrations after IV dosing
# Type: in vivo, CD-1 mice
# CONDITION: CD-1, mouse, brain/plasma, iv, 1 mg/kg, IV 1 mg/kg; 2 h; read-out: Mean Ratio (Brain/Plasma)

| MOLECULE | OBSERVED MEASUREMENT |
| --- | --- |
| O=[N+]([O-])c1ccc([C@@H](OP(=O)(N2CC2)N2CC2)C(F)(F)F)c2ccccc12 (single isomer, unassigned) | 1.11 |

Shifting focus to the molecule that follows.
Challenge: Value lookup for Kp at 2 h; key = `O=[N+]([O-])c1ccc([C@H](OP(=O)(N2CC2)N2CC2)C(F)(F)F)c2ccccc12`
Response given: 1.34

###

# ASSAY OVERVIEW: Blood-brain barrier experiment, brain and plasma concentrations after IV dosing
# Format: in vivo, CD-1 mice
# CONDITION: CD-1, mouse; plasma; IV 1 mg/kg
Listed here are molecules together with their documented AUC(0-t).
Kindly answer with a numeric value in µg·h/mL, unit omitted.

Challenge: Could you share which AUC(0-t) value was measured for O=[N+]([O-])c1ccc([C@@H](OP(=O)(N2CC2)N2CC2)C(F)(F)F)c2ccccc12 (single isomer, unassigned) ?
Response given: 0.188

Challenge: Param item = `O=[N+]([O-])c1ccc([C@H](OP(=O)(N2CC2)N2CC2)C(F)(F)F)c2ccccc12` ; retrieve measured AUC(0-t).
Response given: 0.289

###

# ASSAY OVERVIEW: Blood-brain barrier experiment, brain and plasma concentrations after IV dosing
# Format: in vivo, CD-1 mice
# CONDITION: CD-1, mouse, brain/plasma, iv, 1 mg/kg, IV 1 mg/kg; read-out: AUClnf Ratio (Brain/Plasma)
REPORTED METRIC: Kp

| COMPOUND | OBSERVED MEASUREMENT |
| --- | --- |
| O=[N+]([O-])c1ccc([C@@H](OP(=O)(N2CC2)N2CC2)C(F)(F)F)c2ccccc12 (single isomer, unassigned) | 0.73 |

Okay, now this compound:
Challenge: Reported Kp for `O=[N+]([O-])c1ccc([C@H](OP(=O)(N2CC2)N2CC2)C(F)(F)F)c2ccccc12` : what is it?
Response given: 1.49

###

# Test system: NCI-H23
# ASSAY OVERVIEW: Cytotoxicity, NSCLC cell line NCI-H23
# Format: cell-based
# CONDITION: Homo sapiens
# Protocol: Compounds were exposed at various concentrations for 72 hours, followed by a wash step. Fresh medium was added for growth. The cell was stained to determine the cell survival rate and compared with controls treated with medium only. In particular, exponentially grown cells were inoculated in 96-well plates at a density of 2×10^3 cells/100 μl/well and incubated for 24 hours at 37° C. and under the conditions of 5% CO2, 95% air and 100% relative humidity before addition of 99 μl of culture solution. […]
REPORTED METRIC: IC50 (µM)
Supply the numeric figure in µM, leaving out any unit text.

Challenge: Endpoint output: IC50 of O=[N+]([O-])c1ccc(C(OP(=O)(N2CC2)N2CC2)C(F)(F)F)c2ccccc12 (racemic) . Value?
Response given: 6.41

###

Quick reference: Kp at 0.083 h of the listed items.
# ASSAY OVERVIEW: Blood-brain barrier experiment, brain and plasma concentrations after IV dosing
# Type: in vivo, CD-1 mice
# CONDITION: CD-1, mouse, brain/plasma, iv, 1 mg/kg, IV 1 mg/kg; 0.083 h; single animals; read-out: Ratio (Brain/Plasma)

| MOLECULE | Kp at 0.083 h |
| --- | --- |
| O=[N+]([O-])c1ccc([C@H](OP(=O)(N2CC2)N2CC2)C(F)(F)F)c2ccccc12 | 2.18 |

Please examine the following record next.
Challenge: Would you mind telling me what Kp at 0.083 h value was observed for O=[N+]([O-])c1ccc([C@@H](OP(=O)(N2CC2)N2CC2)C(F)(F)F)c2ccccc12 (single isomer, unassigned) ?
Response given: 0.99
